# experimental-protocol: self-splicing fitness, log relative to wild type (ln ratio); higher = more splicing; Tetrahymena group I intron in knt gene, E. coli kanamycin selection, DiMSum; sequences stand for … in CUCUCU…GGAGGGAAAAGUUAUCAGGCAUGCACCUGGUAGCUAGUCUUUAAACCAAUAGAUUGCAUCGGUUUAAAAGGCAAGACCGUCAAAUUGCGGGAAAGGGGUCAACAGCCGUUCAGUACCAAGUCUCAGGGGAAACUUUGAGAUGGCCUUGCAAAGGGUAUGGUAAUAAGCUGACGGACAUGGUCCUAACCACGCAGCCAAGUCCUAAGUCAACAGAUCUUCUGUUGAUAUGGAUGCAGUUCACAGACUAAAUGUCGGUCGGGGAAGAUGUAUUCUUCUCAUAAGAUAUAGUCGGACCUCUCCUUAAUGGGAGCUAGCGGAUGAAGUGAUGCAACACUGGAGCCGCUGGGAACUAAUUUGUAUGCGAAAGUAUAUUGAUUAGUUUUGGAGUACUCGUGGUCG;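 also: selection with 25 µg/mL kanamycin versus none on LB agar overnight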
# particulars: 30 °C

sequence-input: ACGCAGCAAUAUUACGAGGA
self-splicing fitness (ln): -2.8

sequence-input: AAGAAGCAAUAUUACGGUUA
self-splicing fitness (ln): -0.783

sequence-input: CGUUAGCAAUAUUACGGACG
self-splicing fitness (ln): -4.39

sequence-input: UACCAGCAAUAUUACGCACC
self-splicing fitness (ln): -1.52

sequence-input: UGUCAGCAAUAUUACGACUA
self-splicing fitness (ln): -0.425

sequence-input: GGACAGCAAUAUUACGACAA
self-splicing fitness (ln): -1.7

sequence-input: UAAAAGCAAUAUUACGGGCC
self-splicing fitness (ln): -1.68

sequence-input: ACUUAGCAAUAUUACGUAGC
self-splicing fitness (ln): -2.76

sequence-input: GUGCAGCAAUAUUACGUAAG
self-splicing fitness (ln): 0.0919

sequence-input: UAAAAGCAAUAUUACGCAAU
self-splicing fitness (ln): -3.58

sequence-input: AUAAAGCAAUAUUACGAGAG
self-splicing fitness (ln): -2.29

sequence-input: UCCGAGCAAUAUUACGAGGC
self-splicing fitness (ln): -3.1

sequence-input: GCUGAGCAAUAUUACGAGGA
self-splicing fitness (ln): -2.31

sequence-input: UGCGAGCAAUAUUACGAAGU
self-splicing fitness (ln): -3.37

sequence-input: GCUAAGCAAUAUUACGAGAU
self-splicing fitness (ln): -2.3

sequence-input: AGUUAGCAAUAUUACGCGAG
self-splicing fitness (ln): -2.52

sequence-input: CUCUAGCAAUAUUACGUACG
self-splicing fitness (ln): -2.5

sequence-input: AAUGAGCAAUAUUACGCGUG
self-splicing fitness (ln): -2.11
